Kd: recorded values
# Study Target: polyclonal serum anti-MBP antibodies isolated from immunized DA rats
# Assay Method Text: Surface plasmon resonance of autoAb binding to biotinylated MBP peptides and MBP
# Condition Notes: SPR, BiaCore T-200; antibodies 50 μg/ml; immobilized peptide or MBP; read-out: effective dissociation constant

>>> result_value("QDENPVVHFFKNIV [MBP encephalitogenic fragment]")
"9.6 nM"

input: Which value of Kd has been reported for IFKLGGRDSRSGSPMARR [C-terminal fragment] in the records?
output: 8.4 nM

Origin of values: patent US20160175249A1
